Readings of selectivity ratio for the listed compounds
# ASSAY_PROCEDURE: Selectivity index, ratio of CC50 for human MT4 cells to EC50 for wild type HIV1 3B
# Type: toxicity, cell-based
# TEST_CONTEXT: read-out: Ratio CC50/EC50

INSERT INTO results (smiles_input, measured_value) VALUES
  ('N#Cc1ccc(Nc2nccc(Oc3cc4ccc(C#N)cc4cc3Br)n2)cc1', 50400),
  ('N#Cc1ccc(Nc2nccc(Oc3ccc4cc(C#N)ccc4c3Br)n2)cc1', 181000),
  ('Cc1cc(Oc2ccc3cc(C#N)ccc3c2Br)nc(Nc2ccc(C#N)cc2)n1', '> 40100'),
  ('COc1c(Oc2ccnc(Nc3ccc(C#N)cc3)n2)ccc2cc(C#N)ccc12', '≥ 134000'),
  ('N#Cc1ccc(Nc2nccc(Oc3ccc4cc(C#N)ccc4c3)n2)cc1', 20500);

Dear colleague, I am looking for the recorded selectivity ratio of the following compound: N#Cc1ccc(Nc2nccc(Oc3ccc4cc(C#N)ccc4c3Cl)n2)cc1 48000

Dear colleague, I am looking for the recorded selectivity ratio of the following compound: Cc1cnc(Nc2ccc(C#N)cc2)nc1Oc1ccc2cc(C#N)ccc2c1Br > 23800

Dear colleague, I am looking for the recorded selectivity ratio of the following compound: COc1cc2cc(C#N)ccc2cc1Oc1ccnc(Nc2ccc(C#N)cc2)n1 > 158000

Dear colleague, I am looking for the recorded selectivity ratio of the following compound: COc1cc2cc(C#N)ccc2c(OC)c1Oc1ccnc(Nc2ccc(C#N)cc2)n1 ≥ 25000

Dear colleague, I am looking for the recorded selectivity ratio of the following compound: Cc1cnc(Nc2ccc(C#N)cc2)nc1Oc1ccc2cc(C#N)ccc2c1 > 44900

Dear colleague, I am looking for the recorded selectivity ratio of the following compound: COc1cc2cc(C#N)ccc2c(Cl)c1Oc1ccnc(Nc2ccc(C#N)cc2)n1 ≥ 25700

Dear colleague, I am looking for the recorded selectivity ratio of the following compound: Cc1cc(Oc2ccc3cc(C#N)ccc3c2)nc(Nc2ccc(C#N)cc2)n1 > 96500

###

# SYSTEM_NAME: Human immunodeficiency virus type 1 reverse transcriptase (Human immunodeficiency virus 1, UniProt Q72547)
Readings of IC50 for the listed compounds
Express your answer in nM, writing the number without its unit.

Dear colleague, I am looking for the recorded IC50 of the following compound: N#Cc1ccc(Nc2nccc(Oc3cc4ccc(C#N)cc4cc3Br)n2)cc1 1130

Dear colleague, I am looking for the recorded IC50 of the following compound: N#Cc1ccc(Nc2nccc(Oc3ccc4cc(C#N)ccc4c3)n2)cc1 8720

Dear colleague, I am looking for the recorded IC50 of the following compound: COc1cc2cc(C#N)ccc2c(OC)c1Oc1ccnc(Nc2ccc(C#N)cc2)n1 94.5

###

# ASSAY_PROCEDURE: Cytotoxicity against human MT4 cells after 4 days by MTT assay
# Type: cell-based
QUANTITY: CC50 at 96 h

INSERT INTO assay_data (smiles_input, quantity, measured_value) VALUES
  ('COc1cc2cc(C#N)ccc2c(OC)c1Oc1ccnc(Nc2ccc(C#N)cc2)n1', 'CC50 at 96 h', '> 118 µM');

Dear colleague, I am looking for the recorded CC50 at 96 h of the following compound: CC(C)Nc1cccnc1N1CCN(C(=O)c2cc3cc(NS(C)(=O)=O)ccc3[nH]2)CC1 > 3.62 µM

Dear colleague, I am looking for the recorded CC50 at 96 h of the following compound: N#Cc1ccc(Nc2nccc(Oc3cc4ccc(C#N)cc4cc3Br)n2)cc1 > 56.5 µM

meta.source: ChEMBL document CHEMBL1177663
